# binning rule on logP: band A = under -0.3, band B = from -0.3 up to 0.5, band C = 0.5 and over

MOLECULE: CC(C)Cc1nnc(N)o1
ASSIGNED_CLASS: band B
--
MOLECULE: CC(C)(C)C(=O)NN
ASSIGNED_CLASS: band A
--
MOLECULE: CCCCCCCC(=O)NN
ASSIGNED_CLASS: band C
--
MOLECULE: Nc1nnc(CCc2ccccc2)o1
ASSIGNED_CLASS: band C

Now turn to the next molecule.
Problem: Place this molecule in its band: Nc1nnco1
Solution: band A

* * *

Measured logP of individual entries
- TEST_SUMMARY: method code SF-AS, from DOI: 10.1002/zfch.19790190911

For orientation, consider the following solved cases.
COMPOUND: CCCCCCCCC(=O)NN
TEST_RESULT: 0.5

COMPOUND: CC(=O)NN
TEST_RESULT: -1.58

COMPOUND: CCCCC(=O)NN
TEST_RESULT: -0.11

COMPOUND: CCCCCCc1nnc(N)o1
TEST_RESULT: 1.43

COMPOUND: Nc1nnc(Cc2ccccc2)o1
TEST_RESULT: 0.95

COMPOUND: CCCCCCCCCC(=O)NN
TEST_RESULT: 0.03

Summary for this compound, CCCCCc1nnc(N)o1 : logP is 1.1

Data point: CCCCc1nnc(N)o1 ; logP = 0.65

Notebook: CC(C)C(=O)NN , logP read as -0.63

Lab note: CCCCCCCc1nnc(N)o1 gave logP of 0.73

Note to self: logP recorded for CCCCCC(=O)NN was 0.48

Entry Cc1nnc(N)o1 — recorded logP = -0.92

Measured logP, CCC(=O)NN : -1

Lab book: logP of CCCC(=O)NN noted as -0.62

According to the records, this compound CCCc1nnc(N)o1 displays logP of 0.23

Record CC(C)(C)c1nnc(N)o1 , field logP: 0.48

* * *

- TEST_SUMMARY: method code SF-AS, from DOI: 10.1002/zfch.19790190911
logP reference
Field format: numeric only.

MOLECULE: CCc1nnc(N)o1
TEST_RESULT: -0.3
//
MOLECULE: NNC=O
TEST_RESULT: -2.05
//
MOLECULE: CC(C)CC(=O)NN
TEST_RESULT: -0.31

Measured logP, CCC(C)c1nnc(N)o1 (configuration not stated) : 0.62

# molecule CC(C)c1nnc(N)o1 ; its logP = 0.2

For reference, reported logP for CCCCCCC(=O)NN stands at 0.97

Item: CCC(C)C(=O)NN (configuration not stated) | logP: -0.33
